Assay Overview: Metabolic stability in human liver microsomes after 10 mins
Assay type: ADME, Microsome
Details: read-out: Stability

- Structure String: "CSc1nn(-c2ccccc2)c2cc(NC(=O)C3CCNCC3)ccc12"
  remaining at 10 min [%]: 96

====

Assay Overview: Clearance in Sprague-Dawley rat at 2 mg/kg, iv and 10 mg/kg, po
Assay type: ADME, organism-based
Details: in vivo
Property Label: clearance (mL/min/kg)

- Structure String: "CSc1nn(-c2ccccc2)c2cc(NC(=O)C3CCNCC3)ccc12"
  Result Number: 11.6

====

Assay Overview: Aqueous solubility of the compound in water
Assay type: physicochemical
Property Label: solubility (µM)

- Structure String: "CSc1nn(-c2ccccc2)c2cc(NC(=O)C3CCNCC3)ccc12"
  Result Units: "µM"
  Result Number: 40.7

====

Tested Target: Cytochrome P450 3A4 (Homo sapiens, UniProt P08684)
Sequence (P08684 whole entry): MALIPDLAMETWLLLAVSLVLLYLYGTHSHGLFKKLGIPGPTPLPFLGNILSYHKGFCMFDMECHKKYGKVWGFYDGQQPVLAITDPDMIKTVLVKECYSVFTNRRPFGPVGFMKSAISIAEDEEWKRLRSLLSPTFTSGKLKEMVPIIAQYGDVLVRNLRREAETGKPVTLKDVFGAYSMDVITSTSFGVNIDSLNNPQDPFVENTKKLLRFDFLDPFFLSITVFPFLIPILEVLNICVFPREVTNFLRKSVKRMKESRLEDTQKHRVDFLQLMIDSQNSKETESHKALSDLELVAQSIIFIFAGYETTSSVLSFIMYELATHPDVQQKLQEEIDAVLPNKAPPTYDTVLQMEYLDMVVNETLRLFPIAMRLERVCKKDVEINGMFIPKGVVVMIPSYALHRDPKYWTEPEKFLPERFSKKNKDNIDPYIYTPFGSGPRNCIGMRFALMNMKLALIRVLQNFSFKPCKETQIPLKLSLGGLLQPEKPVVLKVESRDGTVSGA
Assay Overview: Inhibition of human recombinant CYP3A4
Property Label: IC50

- Structure String: "CSc1nn(-c2ccccc2)c2cc(NC(=O)C3CCNCC3)ccc12"
  Result: "> 10 µM"

====

Assay Overview: Aqueous solubility of the compound in phosphate buffered saline at pH 7.4
Assay type: physicochemical

- Structure String: "CSc1nn(-c2ccccc2)c2cc(NC(=O)C3CCNCC3)ccc12"
  solubility [µM]: 45.2

====

Assay Overview: Oral bioavailability in Sprague-Dawley rat at 10 mg/kg
Type: ADME, organism-based
Details: in vivo
Property Label: bioavailability (%)

- Structure String: "CSc1nn(-c2ccccc2)c2cc(NC(=O)C3CCNCC3)ccc12"
  Result Units: "%"
  Result Number: 75.4

====

Assay Overview: Aqueous solubility of the compound in […]
Type: physicochemical

- Structure String: "CSc1nn(-c2ccccc2)c2cc(NC(=O)C3CCNCC3)ccc12"
  Result Units: "µM"
  solubility: 40

====

Assay Overview: Aqueous solubility of the compound in phosphate buffered saline at pH 2
Type: physicochemical
Property Label: solubility (µM)

- Structure String: "CSc1nn(-c2ccccc2)c2cc(NC(=O)C3CCNCC3)ccc12"
  Property Label: "solubility"
  Result Units: "µM"
  Result Number: 35.3

FYI, the data here is from ChEMBL document CHEMBL1269008.
